METHOD: Tmax in CD1 mouse at 30 mg/kg, po
Type: ADME, organism-based
CONDITIONS: in vivo
MEASUREMENT_NAME: Tmax
Answer format: number, then unit.

Could you tell me which Tmax is on file for CS[C@@]1(C(=O)Nc2ccc3[nH]nc(-c4ccc(OC(C)C)nc4)c3c2)CCN(CC(=O)N2CC=C(c3ccc(-c4ncn(C)n4)cc3)CC2)C1 ? 1 h

---

TARGET_OR_TEST_SYSTEM: Mitogen-activated protein kinase 1 (Homo sapiens)
METHOD: Inhibition of ERK2 (unknown origin) using peptide substrate measured after 45 mins by IMAP assay
pIC50: −log10 of the molar value.
Mark 1 for reported pIC50 of 8 or greater; mark -1 for anything smaller.

CS[C@@]1(C(=O)Nc2ccc3[nH]nc(-c4ccnc(OC(C)C)c4)c3c2)CCN(CC(=O)N2CC=C(c3ccc(-c4ncn(C)n4)cc3)CC2)C1 -1
CS[C@]1(C(=O)Nc2ccc3[nH]nc(-c4ccc(OC(C)C)nc4)c3c2)CCN(CC(=O)N2CC=C(c3ccc(-c4ncn(C)n4)cc3)CC2)C1 -1
CS[C@@]1(C(=O)Nc2ccc3[nH]nc(-c4ccc(F)cc4)c3c2)CCN(CC(=O)N2CC=C(c3nc(-c4ncccn4)cs3)CC2)C1 -1
CC(C)Oc1ccc(-c2n[nH]c3ccc(NC(=O)[C@]4(S(C)(=O)=O)CCN(CC(=O)N5CC=C(c6ccc(-c7ncn(C)n7)cc6)CC5)C4)cc23)cn1 -1

Quick check: does CCNc1nnc(-c2ccc(C3=CCN(C(=O)CN4CC[C@@](SC)(C(=O)Nc5ccc6[nH]nc(-c7ccc(F)cc7)c6c5)C4)CC3)cc2)o1 have pIC50 greater than or equal to 8? 1

Subsequent entry: CS[C@@]1(C(=O)Nc2ccc3[nH]nc(-c4ccc(F)cc4)c3c2)CCN(CC(=O)N2CC=C(c3ccc(-c4ncccn4)cc3F)CC2)C1 -1

Subsequent entry: COc1cc(-c2n[nH]c3ccc(NC(=O)[C@]4(SC)CCN(CC(=O)N5CC=C(c6ccc(-c7ncn(C)n7)cc6)CC5)C4)cc23)ccn1 1

Subsequent entry: COc1cc(-c2n[nH]c3ccc(NC(=O)[C@]4(SC)CCN(CC(=O)N5CC=C(c6ccc(-c7ncccn7)cc6)CC5)C4)cc23)ccn1 1

Subsequent entry: CS[C@@]1(C(=O)Nc2ccc3[nH]nc(-c4ccc(F)cc4)c3c2)CCN(CC(=O)N2CCN(c3ccc(-c4ncccn4)cc3F)CC2)C1 -1

---

TARGET_OR_TEST_SYSTEM: Mitogen-activated protein kinase 1 (Homo sapiens, UniProt P28482)
Sequence (P28482 whole entry): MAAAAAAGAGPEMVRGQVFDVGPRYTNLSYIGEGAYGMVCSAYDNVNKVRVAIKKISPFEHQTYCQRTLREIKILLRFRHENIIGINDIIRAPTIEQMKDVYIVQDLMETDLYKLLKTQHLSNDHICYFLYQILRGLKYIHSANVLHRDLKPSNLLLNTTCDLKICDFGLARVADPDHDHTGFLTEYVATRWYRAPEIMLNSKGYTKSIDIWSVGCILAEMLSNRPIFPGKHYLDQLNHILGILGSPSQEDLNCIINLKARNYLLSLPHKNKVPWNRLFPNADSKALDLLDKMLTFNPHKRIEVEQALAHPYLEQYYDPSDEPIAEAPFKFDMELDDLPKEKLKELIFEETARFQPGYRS
METHOD: Inhibition of ERK2 (unknown origin) using peptide substrate measured after 45 mins by IMAP assay
MEASUREMENT_NAME: pIC50
Just the number, please; pIC50 means minus log10 of the concentration in mol/L.

Could you tell me which pIC50 is on file for CCNc1ncc(-c2ccc(C3=CCN(C(=O)CN4CC[C@@](SC)(C(=O)Nc5ccc6[nH]nc(-c7ccnc(C)c7)c6c5)C4)CC3)cc2)s1 ? 8.22

Subsequent entry: CS[C@@]1(C(=O)Nc2ccc3[nH]nc(-c4ccc(OC(C)C)nc4)c3c2)CCN(CC(=O)N2CC=C(c3ccc(-c4ncccn4)cc3)CC2)C1 7.89

Subsequent entry: CS[C@@]1(C(=O)Nc2ccc3[nH]nc(-c4ccc(OC(C)C)nc4)c3c2)CCN(CC(=O)N2CC=C(c3ccc(-c4ncn(C)n4)cc3)CC2)C1 8.15

Recorded values, source ChEMBL document CHEMBL4196128.
